System: 786-0 renal
Assay: NCI-60 one-dose screen, 48 h (100 = growth as untreated, 0 = no growth, -100 = all killed)
Conditions: 10 µM unless noted
The panel holds about 83,000 compounds, 20% with a hit somewhere; the sample as a whole holds those more often.
Reported growth is given for each of the following molecules.
Respond numerically; units are % and should not be typed.

Consider the reported growth for these molecules:
molecule	readout units	growth
c1cc(-c2nc3ccc4[nH]ncc4c3c3c2CCCC3)[nH]n1	%	64.7
COc1ccc(/C=C/C(=O)c2cc(S(N)(=O)=O)c(OC)cc2OC)cc1	%	88.1
Nc1ncc(-c2ccc3ncnc(Nc4cccc(Cl)c4F)c3c2)cn1	%	43.5
Cc1ccc2c(c1)C(=O)/C(=C/c1cccc(F)c1)S2	%	103
O=C(NNc1nc2cc(F)ccc2n2cccc12)c1ccncn1	%	11
Cc1cc(C)cc(C(=O)Nc2cccc(C#Cc3cccc4[nH]nc(N)c34)c2)c1	%	89.9

Prompt line: Returns the measured growth for the input molecule. Input: c1ccc(C(c2nc3ncncc3[nH]2)N2CSc3nc4ncncc4n3C2)cc1 (stereo not drawn)
Response line: 33.9

Prompt line: Returns the measured growth for the input molecule. Input: COc1cccc2c1CN(C(=O)c1ccc(O)c(C(=O)N3Cc4ccc(OCCC[P+](c5ccccc5)(c5ccccc5)c5ccccc5)cc4C3)c1)C2
Response line: 103

Prompt line: Returns the measured growth for the input molecule. Input: CC1(C)[C@@H](O)CC[C@]2(C)[C@H]3CC[C@@H]4[C@H]5[C@H](C(=O)/C=C\c6ccncc6)CC[C@]5(O)CC[C@@]4(C)[C@]3(C)CC[C@@H]12
Response line: 35.3

Prompt line: Returns the measured growth for the input molecule. Input: CC(Nc1c(C#N)cnc2ccc(-c3cnc(N)nc3)cc12)c1ccccc1 (stereo not drawn)
Response line: 12.2

Prompt line: Returns the measured growth for the input molecule. Input: O=S(=O)(NCCNc1nccc(-n2cnc3ccccc32)n1)c1ccc(Br)cc1
Response line: 103

###

Test system: EKVX NSCLC
Experiment: NCI-60 one-dose screen, 48 h (100 = growth as untreated, 0 = no growth, -100 = all killed)
Conditions: 10 µM unless noted
Compounds without any hit were thinned out: in the full panel of roughly 83,000, 20% have a hit. Calls of active or inactive are those of the source. How the source made its calls: active means growth percent below 10; inactive means the rest.
Reported growth is given for each of the following compounds.

Consider the reported growth for these compounds:
record smiles	growth
O=C1Nc2ccccc2/C1=C/c1ccc(CO)n1-c1ccc(Cl)cc1	63.6% (inactive)
COc1cccc(N2CCN(c3ncnc4c3[nH]c3ccc(F)cc34)C[C@H]2C)c1	50.9% (inactive)
N=c1c2cc(-c3ccccc3)oc2ncn1/N=C/c1ccc(Cl)cc1	84.7% (inactive)
O=C(CCn1cc[n+](CC(=O)c2ccc(-c3ccccc3)cc2)c1)Nc1cccc2cccnc12	81.9% (inactive)

As a next step, examine the compound that follows.
Prompt line: Hi! What's the reported growth for COc1cc(OC)cc(C(=O)Nc2sc3c(c2C(N)=O)CCC(=O)C3)c1 on EKVX NSCLC?
Response line: 89% (inactive)

###

Tested on: SF-268 CNS
Experiment: NCI-60 one-dose screen, 48 h (100 = growth as untreated, 0 = no growth, -100 = all killed)
Details: 10 µM unless noted
Procedure: Cells are grown in 96 well plates and exposed to the test compound for 48 hours. Compounds are tested at a single concentration, which is 10^-5 M for most compounds. The reported endpoint is percent growth (GI% or GIPRCNT), where numbers from 0 - 100% represent growth inhibition, and numbers from -100% - 0 represent cell death. For example, a value of 40 represents 60% growth inhibition. A value of 0 means no net growth occurred over the course of the experiment. […]
Compounds without any hit were thinned out: in the full panel of roughly 83,000, 20% have a hit.
Reported growth is given for each of the following compounds.
Respond numerically; units are % and should not be typed.

Consider the reported growth for these compounds:
compound	parameter measured	readout units	value
C[C@H]1c2[nH]c3ccccc3c2C[C@H]2C(=O)N(CCCCCCC(=O)NO)CC(=O)N21	growth	%	90.1
CN(C)CCNC(=O)c1ccc(-c2nc3ccc4[nH]ncc4c3c3c2COCC3)cc1	growth	%	-16.2
CC1(COc2ccc3ncc(C#Cc4cncc(C(=O)Nc5cccc(C(F)(F)F)c5)c4)n3n2)COC1	growth	%	76.1

Prompt line: Returns the measured growth for the input compound. Input: O=C(CSc1nc2ccccc2c(=O)n1-c1ccccc1)Nc1cccc(C(=O)/C=C/c2ccccc2)c1
Response line: 94.8

Prompt line: Returns the measured growth for the input compound. Input: CC(c1ccccc1)N1CSc2nc3ncncc3n2C1 (centres undefined)
Response line: 28.4

Prompt line: Returns the measured growth for the input compound. Input: O=C(Nc1ccc(Br)cc1)Nc1nc2ccc([N+](=O)[O-])cc2s1
Response line: 12.2

Prompt line: Returns the measured growth for the input compound. Input: c1cn2c(ccc3nc(-c4cn[nH]c4)c4c(c32)CCCC4)n1
Response line: 77.5

Prompt line: Returns the measured growth for the input compound. Input: CC(C)(C)c1ccc(C(=O)Nc2sc3c(c2C(N)=O)CCC(O)C3)cc1 (centres undefined)
Response line: 63.2

Prompt line: Returns the measured growth for the input compound. Input: CC(C)c1ccc(NCc2cn(-c3ccc(C(=O)O)cc3)nc2-c2cc(C(F)(F)F)cc(C(F)(F)F)c2)cc1
Response line: 88.1

###

System: MOLT-4 leukemia
Assay: NCI-60 one-dose screen, 48 h
Conditions: 10 µM unless noted
About 83,000 compounds went through this panel and 20% of them were active in at least one assay; those are over-represented in the sample as a whole. Active and inactive are the calls of the source. Rule for the calls: active = growth percent below 10; inactive = the rest.
Please reply with one of these outcomes: active, inactive

Observe how each entry below is paired with its result.
compound	class
O=C(Cn1c(-c2ccccc2)nc2cc(Cl)c(Cl)cc21)N=Nc1c(O)[nH]c2ccc(Cl)cc12	inactive
CC(C)C[C@@H]1N[C@@]2(C(=O)Nc3ccccc32)[C@@H](c2ccc(F)cc2)[C@@H]1C(=O)c1ccc(O)cc1	inactive
C=CCN(C)S(=O)(=O)/N=C1\NC(=O)NC1=C(Cl)Cl	active
CCCn1cnc2c(c1=N)C(c1ccc(OC)cc1)c1sc3c(CC)cccc3c1O2 (centres undefined)	inactive

Prompt line: Dear colleague, could you share the recorded outcome for COc1ccc(S(=O)(=O)NCCCNc2nccc(-c3[nH]c(-c4ccccc4)nc3-c3ccc(Cl)c(O)c3)n2)cc1 when you have a moment?
Response line: inactive

Prompt line: Dear colleague, could you share the recorded outcome for N#Cc1cnc2ccc(-c3cnc4[nH]ncc4c3)cc2c1N1CCc2cc(F)c(Cl)cc21 when you have a moment?
Response line: active

Prompt line: Dear colleague, could you share the recorded outcome for Cc1cc(C)c2sc(=O)n(Cc3nnc(SCCC(=O)O)o3)c2n1 when you have a moment?
Response line: inactive

Prompt line: Dear colleague, could you share the recorded outcome for O=C(Nc1nc2ccc([N+](=O)[O-])cc2s1)Nc1ccccc1Cl when you have a moment?
Response line: inactive

Prompt line: Dear colleague, could you share the recorded outcome for CCCCc1nc(/C=N/Nc2nc(Nc3ccccc3)nc(Nc3ccc(S(N)(=O)=O)cc3)n2)c(Cl)[nH]1 when you have a moment?
Response line: inactive

###

Test system: OVCAR-8 ovarian
Assay: NCI-60 one-dose screen, 48 h
Details: 10 µM unless noted
About 83,000 compounds went through this panel and 20% of them were active in at least one assay; those are over-represented in the sample as a whole. Calls of active or inactive are those of the source. Rule for the calls: active = growth percent below 10; inactive = the rest.
Please reply with one of these outcomes: active, inactive

Observe how each entry below is paired with its result.
compound	class
COc1ccc(/C=N/NC(=O)c2cn(C3CC3)c3c(OC)c(N4CC5CCCNC5C4)c(F)cc3c2=O)cc1 (centres undefined)	inactive
O=S(=O)(NCCCNc1nccc(-n2cnc3ccccc32)n1)c1ccc(C(F)(F)F)cc1	inactive
CCN(CC)c1ccc(NC2=C(Cl)C(=O)c3nc(C)ccc3C2=O)cc1	active
CC1(C)[C@@H](O)CC[C@]2(C)[C@H]3CC[C@@H]4[C@H]5[C@H](C(=O)/C=C\c6ccncc6)CC[C@]5(O)CC[C@@]4(C)[C@]3(C)CC[C@@H]12	inactive
C=C(C=O)[C@@H]1CC[C@]2(CO)CC[C@]3(C)[C@H](CC[C@@H]4[C@@]5(C)CCCNC(C)(C)[C@@H]5CC[C@]43C)[C@@H]12	inactive

Prompt line: Dear colleague, could you share the recorded outcome for O=S(=O)(NCCNc1nccc(-n2cnc3ccccc32)n1)c1ccc(Cl)cc1 when you have a moment?
Response line: inactive

Prompt line: Dear colleague, could you share the recorded outcome for COc1ccc(NC(=O)CSc2nnc(-c3ccc4nc(-c5ccccc5)[nH]c4c3)o2)cc1 when you have a moment?
Response line: inactive

Prompt line: Dear colleague, could you share the recorded outcome for O=S(=O)(Nc1ccc(I)cc1Cl)c1ccc(-c2cnc(C3CC3)o2)cc1 when you have a moment?
Response line: inactive

Prompt line: Dear colleague, could you share the recorded outcome for NC(N)=Nc1ccc(Oc2cccc(NC(N)=Nc3ccc(I)cc3F)c2)cc1 when you have a moment?
Response line: inactive

Prompt line: Dear colleague, could you share the recorded outcome for COC(=O)c1[nH]nc2c1C1(C(=O)c3cccc4cccc1c34)C(C#N)=C(N)O2 (centres undefined) when you have a moment?
Response line: inactive

Prompt line: Dear colleague, could you share the recorded outcome for COc1ccc([C@H]2c3[nH]c4ccccc4c3C[C@H]3C(=O)N(C4CCN(Cc5c(Cl)cccc5Cl)CC4)CC(=O)N23)c(OC)c1 when you have a moment?
Response line: inactive

Prompt line: Dear colleague, could you share the recorded outcome for O=C1/C(=C/C=C/c2ccco2)SC(=S)N1c1ccccc1 when you have a moment?
Response line: inactive

Prompt line: Dear colleague, could you share the recorded outcome for Cn1ccnc1C(=O)/C=C/c1ccc(CNC(=O)c2ccc(F)cc2)cc1 when you have a moment?
Response line: inactive

Prompt line: Dear colleague, could you share the recorded outcome for COC(=O)C[Se]C(=O)Cc1c(C)n(C(=O)c2ccc(Cl)cc2)c2ccc(OC)cc12 when you have a moment?
Response line: inactive
